Where do the numbers come from? From patent US7511055B2.

Notes on pKi obtained with human mGlu 5a receptor (Homo sapiens, UniProt P41594).
Sequence (P41594 21-1180 isoform P41594-2 limits assumed): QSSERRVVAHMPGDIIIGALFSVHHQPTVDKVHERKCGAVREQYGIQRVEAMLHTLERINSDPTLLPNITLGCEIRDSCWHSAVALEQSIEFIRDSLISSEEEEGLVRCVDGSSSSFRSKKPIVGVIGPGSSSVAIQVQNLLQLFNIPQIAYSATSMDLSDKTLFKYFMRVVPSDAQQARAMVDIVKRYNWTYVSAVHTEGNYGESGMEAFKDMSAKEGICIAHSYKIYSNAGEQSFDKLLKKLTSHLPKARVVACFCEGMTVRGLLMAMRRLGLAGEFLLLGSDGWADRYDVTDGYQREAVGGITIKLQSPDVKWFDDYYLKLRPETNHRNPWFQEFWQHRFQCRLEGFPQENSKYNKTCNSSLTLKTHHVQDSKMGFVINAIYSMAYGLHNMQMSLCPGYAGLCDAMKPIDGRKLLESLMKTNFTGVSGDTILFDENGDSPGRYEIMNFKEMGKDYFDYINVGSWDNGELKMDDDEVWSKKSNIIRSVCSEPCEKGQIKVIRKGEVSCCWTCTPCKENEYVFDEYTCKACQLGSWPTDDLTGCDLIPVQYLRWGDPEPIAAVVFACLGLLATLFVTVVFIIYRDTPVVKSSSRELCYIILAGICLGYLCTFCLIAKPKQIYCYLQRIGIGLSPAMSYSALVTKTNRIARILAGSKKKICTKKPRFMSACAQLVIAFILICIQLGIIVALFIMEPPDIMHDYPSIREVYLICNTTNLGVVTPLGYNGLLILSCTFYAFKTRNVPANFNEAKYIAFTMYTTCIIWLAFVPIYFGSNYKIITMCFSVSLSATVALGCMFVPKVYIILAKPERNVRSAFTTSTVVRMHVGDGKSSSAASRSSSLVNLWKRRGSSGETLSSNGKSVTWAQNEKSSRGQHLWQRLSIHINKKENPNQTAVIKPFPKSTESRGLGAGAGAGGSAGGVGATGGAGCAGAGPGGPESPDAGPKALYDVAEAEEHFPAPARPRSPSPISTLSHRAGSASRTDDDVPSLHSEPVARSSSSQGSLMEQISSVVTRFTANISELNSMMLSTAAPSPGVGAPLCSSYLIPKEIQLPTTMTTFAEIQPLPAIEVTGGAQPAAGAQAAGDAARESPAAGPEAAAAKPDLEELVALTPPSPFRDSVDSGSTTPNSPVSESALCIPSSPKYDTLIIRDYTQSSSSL
pKi: −log10 of the molar value.

| compound | pKi |
| --- | --- |
| Cc1cccc(Nc2ncc(-c3cccnc3)c3cccnc23)n1 [Example 6] | 7.48 |
| COc1cccc(-c2cnc(Nc3nc(C)cs3)c3nc(C)ccc23)c1 [Example 42] | 7.25 |
| Cc1cccc(Nc2nccc3cccnc23)n1 [Example 1] | 7.60 |
| Clc1cc(Nc2ncc(-c3cccnc3)c3cccnc23)ccn1 [Example 8] | 7.42 |
| COc1ccc(-c2cnc(Nc3ccnc(Cl)c3)c3ncccc23)cn1 [Example 12] | 7.25 |
